Source: patent US20130259876A1

Molecular target: T1, HLA-B*2705 heavy chain with human beta 2 microglobulin on C1R-neo-B*2705 cells (human, UniProt P01889 25-362; P61769 21-119)
T1 construct: also called C1R-neo-HLA-B27
Assay: flow cytometry, C1R-neo-HLA-B27 cells, antibody 1 ug/ml
readout_name: MFI (MFI)
// units = MFI; emit number, no label

Record excerpt, results attached:
# binder, MFI (MFI)
measured = [
    ("H4H2530S (antibody, V domains shown) VH: EVQLVESGPGLVKPSQTLSLTCTVSGGSINSGGSYWSWIRQHPGKGLEWIGYIYSSGNTYYKPSLKSRVTISLDTSKNQFSLKMSSVTAADTAIYYCARDPRGITGTHYFDYWGQGTTVTVSS VL: EIVLTQSPGTLSLSPGERATLSCRTSQSISNKYLAWYQQKPGQAPRLLIYGASTRATGIPDRFSGSGSGTDFTLTISRLEPEDFAVYYCQQFGTSLFTFGPGTKVEIK", 78.8),
    ("H4H2559P (antibody, V domains shown) VH: QVQLVQSGAEVKKPGASVKVSCKASGYTFTDYFLHWVRQAPGQGLEWVGWINPNSGGTNFAQKFQGRVTMTRDTSISTAYMDLSRLRSDDTAVYYCARKAGYTSSWFDYWGQGTLVTVSS VL: DIVMTQSPDSLAVSLGERATINCKSSQSILYSFNNKNYLAWYQQKIGQPPMLLIYWASTRESGVPDRFSGSGSGTDFTLTISRLQAEDVAVYYCQQYYSSITFGQGTRLEIK", 104),
]

Turning to the following binder.
Entry H4H2490N2 (antibody, V domains shown) VH: QVQLVQSGADVKWPGASVKVSCRASGYTFTGYYMHWVRQAPGQGLEWMGWINPNNGGTNYAQKFQGRVTMTRDTSITTVYMELSSLISDDTAVYYCARGEDLELRNYYYYGMDVWGQGTSVTVSS VL: DIQMTQSPSSLSASVGDRVTITCRASQSISSYLNWYQQKPGKAPKLLIYAASNLQSGVPSRFSGSGFGTDFTLTISSLQSEDFATYYCQQTYSTRTFGRGTKVEIK , MFI reported as 137
